Please provide measured % Phosphatase Activity (compared to DMSO) PRL-3 for the entries that follow.
# TARGET_ENTITY: recombinant PRL-3 (Homo sapiens, UniProt O75365)
# Construct: 6xHis (N, cleaved yes); made in house; host or cells: E. coli One Shot BL21 Star
# Sequence (O75365 whole entry): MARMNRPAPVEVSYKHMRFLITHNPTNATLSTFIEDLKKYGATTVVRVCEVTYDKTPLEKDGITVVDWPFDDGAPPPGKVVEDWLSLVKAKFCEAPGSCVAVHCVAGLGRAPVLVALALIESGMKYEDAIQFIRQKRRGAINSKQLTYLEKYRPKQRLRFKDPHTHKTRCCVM
# TEST_PROTOCOL: In vitro phosphatase assay (DiFMUP hydrolysis), PRL-3; also: test concentration or dose not given here
# Assay type: biochemical
# TEST_CONDITIONS: FDA-approved drug screen; compared to DMSO
Where a name gives a salt, the structure may show the parent alone.
Mention the unit after the number when you answer.

Look up % Phosphatase Activity (compared to DMSO) PRL-3 for this compound: O=C(O)c1cccnc1Nc1cccc(C(F)(F)F)c1 88%

Look up % Phosphatase Activity (compared to DMSO) PRL-3 for this compound: CCOC(=O)[C@H](CCc1ccccc1)N[C@@H](C)C(=O)N1Cc2cc(OC)c(OC)cc2C[C@H]1C(=O)O [Moexipril HCl] 83%

Look up % Phosphatase Activity (compared to DMSO) PRL-3 for this compound: CC(=O)c1c(C)c2cnc(Nc3ccc(N4CCNCC4)cn3)nc2n(C2CCCC2)c1=O.O=S(=O)(O)CCO [Palbociclib (PD0332991) Isethionate] 100%

Look up % Phosphatase Activity (compared to DMSO) PRL-3 for this compound: CCc1cc(/C(C)=N/OCc2ccc(C3CCCCC3)c(C(F)(F)F)c2)ccc1CN1CC(C(=O)O)C1 [BAF312 (Siponimod)] 101%

Look up % Phosphatase Activity (compared to DMSO) PRL-3 for this compound: CC1CCc2cc(F)cc3c(=O)c(C(=O)O)cn1c23 (centres unmarked) 96%

Look up % Phosphatase Activity (compared to DMSO) PRL-3 for this compound: C[C@]12CCC(=O)C=C1[C@@H]1C[C@@H]1[C@H]1[C@@H]3[C@@H]4C[C@@H]4[C@@]4(CCC(=O)O4)[C@@]3(C)CC[C@@H]12 71%

Look up % Phosphatase Activity (compared to DMSO) PRL-3 for this compound: CC(C)C[C@H](NC(=O)CNC(=O)c1cc(Cl)ccc1Cl)B(O)O 86%

Look up % Phosphatase Activity (compared to DMSO) PRL-3 for this compound: OCC(O)CN1CCN(c2ccccc2)CC1 (centres unmarked) 76%

Look up % Phosphatase Activity (compared to DMSO) PRL-3 for this compound: CC(C)c1nc(CN(C)C(=O)N[C@@H](CCN2CCOCC2)C(=O)N[C@H](CC[C@H](Cc2ccccc2)NC(=O)OCc2cncs2)Cc2ccccc2)cs1 [Cobicistat (GS-9350)] 95%

Look up % Phosphatase Activity (compared to DMSO) PRL-3 for this compound: O=C(O)CCc1nc(-c2ccccc2)c(-c2ccccc2)o1 71%

Look up % Phosphatase Activity (compared to DMSO) PRL-3 for this compound: CN(C)[C@@H]1C(=O)C(C(N)=O)=C(O)[C@@]2(O)C(=O)C3=C(O)c4c(O)cccc4[C@@](C)(O)[C@H]3[C@H](O)[C@@H]12 74%

Look up % Phosphatase Activity (compared to DMSO) PRL-3 for this compound: CC(C(=O)O)c1ccc2c(c1)[nH]c1ccc(Cl)cc12 (centres unmarked) 71%

Look up % Phosphatase Activity (compared to DMSO) PRL-3 for this compound: Br.COc1ccc2c3c1O[C@H]1C[C@@H](O)C=C[C@@]31CCN(C)C2 93%

Look up % Phosphatase Activity (compared to DMSO) PRL-3 for this compound: C[C@H](N)[C@H](O)c1cccc(O)c1 [Metaraminol Bitartrate] 94%

Look up % Phosphatase Activity (compared to DMSO) PRL-3 for this compound: CC(CCc1ccc(O)cc1)NCC(O)c1ccc(O)cc1.Cl (racemic) [Ractopamine HCl] 100%

Look up % Phosphatase Activity (compared to DMSO) PRL-3 for this compound: CN1CCC(=C2c3ccccc3CCn3c(C=O)cnc32)CC1 85%

Look up % Phosphatase Activity (compared to DMSO) PRL-3 for this compound: O=S(=O)([O-])CCSSCCS(=O)(=O)[O-].[Na+].[Na+] 79%

Look up % Phosphatase Activity (compared to DMSO) PRL-3 for this compound: O=C1CCc2cc(OCCCCc3nnnn3C3CCCCC3)ccc2N1 69%

Look up % Phosphatase Activity (compared to DMSO) PRL-3 for this compound: CCN(CC)C(=O)N1CCN(C)CC1.O=C(O)CC(O)(CC(=O)O)C(=O)O [Diethylcarbamazine (citrate)] 90%

Look up % Phosphatase Activity (compared to DMSO) PRL-3 for this compound: Cc1c(C(=O)Nc2ccc(N3C[C@@H](C)O[C@@H](C)C3)nc2)cccc1-c1ccc(OC(F)(F)F)cc1 83%
